// data source = the array DNA melting data of Ke et al. (doi:10.1101/2024.01.08.574731)

Quick reference for Tm among some sequences
# Assay details: melting temperature; fluorescence melt of hairpins on a sequencing array, two-state fit, raised by 9.35 °C to match UV melts
# Condition: sodium 0.088 M
Answer with a number only, understood to be in °C.

Look over these answered cases.
{"columns": ["Sequence text", "Tm / °C"],
 "data": [
  ["GTACTAGAAATAGTAC ((((((....))))))", 42.4],
  ["GATCGCAATCGCGATC ((((((....))))))", 67.9],
  ["GTCGAAGGAAACCTCGAC (((((.(....).)))))", 48],
  ["GTCTGCGAAAGCAGAGAC ((((((....)))..)))", 51.4]
]}

Challenge: Data request, read-out Tm, for GATCCACTCGTGGATC ((((((....))))))
Response given: 63.2
